Biological target: T1, wild-type rat NK2R receptor of tachykinins (construct pCEP4-NK2R), expressed on HEK 293 cells (rat, UniProt P16610 1-390)
T1 construct: whole, on cells; Stably expressed in HEK 293 cells; also called NK2R-WT; NK2R WT
T1 sequence (looked up): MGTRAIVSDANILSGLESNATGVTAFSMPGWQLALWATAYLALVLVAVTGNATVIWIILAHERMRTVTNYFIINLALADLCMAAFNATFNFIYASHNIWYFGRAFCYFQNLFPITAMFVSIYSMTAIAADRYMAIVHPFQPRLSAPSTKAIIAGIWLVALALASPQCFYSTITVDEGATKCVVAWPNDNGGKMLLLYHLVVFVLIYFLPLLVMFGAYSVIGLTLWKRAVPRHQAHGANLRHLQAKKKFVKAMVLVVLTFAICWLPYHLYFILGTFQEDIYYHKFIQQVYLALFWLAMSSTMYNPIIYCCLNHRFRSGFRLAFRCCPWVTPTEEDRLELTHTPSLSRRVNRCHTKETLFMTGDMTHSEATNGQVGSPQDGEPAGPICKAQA
Assay: displacement of 3H SR 48968 on HEK 293 cells expressing NK2R-WT, filtration (FIG. 8a)
Where no end group is shown, it is not given here.
experimental endpoint: pKi
Here pKi is given on a logarithmic scale as minus log10 of the concentration in mol/L.

Could you share which pKi value was measured for HKTDSFVGLM (peptide, UniProt P20366 98-107, looked up, also: BODIPY 530/550 IA label, site not given here, mature; HPLC-purified reaction product of NKA with BODIPY 530/550 IA; also called NKA BO 1; NKA-Bodipy derivative) [NKA BO I (neurokinin A labeled with BODIPY 530/550 IA)] ?
7.79

The origin of these recorded values is patent US20060275828A1.
